assay: PAMPA (pH 7.4); assay type: in vitro ADME; details: PAMPA; pH = 7.4
Measured Metric: Papp at 4 h, 50 μM (×10⁻⁶ cm/s)

# Molecule, Measured Metric, Measured Value
records = [
    ("CNS(=O)(=O)Nc1nccc(Cc2c(C)c3ccc(Oc4ncccn4)cc3oc2=O)c1F [Reference-2, reference compound]", "Papp at 4 h, 50 μM", 29),
    ("Cn1cnc2c(F)c(Nc3ccc(Br)cc3Cl)c(C(=O)NOCCO)cc21 [Reference-1, Selumetinib]", "Papp at 4 h, 50 μM", 29),
]

###

The entries below are paired with their reported % Remaining At T120.
tested on: beagle dog hepatocytes; test: Hepatocyte stability, beagle dog; assay type: in vitro ADME; conditions: 2 μM, 0.5 million cells/ml
Counter-ions that a name gives are not always drawn.

# Molecule, Measurement Target, % Remaining At T120 [%]
data = [
    ("CCS(=O)(=O)Nc1cccc(Cc2c(CN(C)C)c3ccc(OC(=O)N(C)C)cc3oc2=O)c1F", "beagle dog hepatocytes", 49.5),
    ("CNS(=O)(=O)Nc1cccc(Cc2c(CN(C)C)c3ccc(OC(=O)N(C)C)cc3oc2=O)c1Cl", "beagle dog hepatocytes", 51.9),
    ("CNS(=O)(=O)Nc1nccc(Cc2c(CN(C)C)c3ccc(OC(=O)N(C)C)cc3oc2=O)c1F", "beagle dog hepatocytes", 34.4),
    ("CCN(C)Cc1c(Cc2cccc(NS(=O)(=O)NC)c2Cl)c(=O)oc2cc(OC(=O)N(C)C)ccc12", "beagle dog hepatocytes", 23.4),
    ("CCN(C)Cc1c(Cc2cccc(NS(=O)(=O)NC)c2F)c(=O)oc2cc(OC(=O)N(C)C)c(F)cc12", "beagle dog hepatocytes", 31.1),
    ("CNS(=O)(=O)Nc1cccc(Cc2c(CN3CCNCC3)c3cc(F)c(OC(=O)N(C)C)cc3oc2=O)c1F", "beagle dog hepatocytes", 74.7),
    ("CNS(=O)(=O)Nc1cccc(Cc2c(CN(C)C)c3cc(F)c(OC(=O)N(C)C)cc3oc2=O)c1F", "beagle dog hepatocytes", 62.7),
    ("CCS(=O)(=O)Nc1cccc(Cc2c(CN3CCNCC3)c3cc(Cl)c(OC(=O)N(C)C)cc3oc2=O)c1Cl [Compound 257, hydrochloride]", "beagle dog hepatocytes", 47.8),
    ("CCCS(=O)(=O)Nc1cccc(Cc2c(CN3CCNCC3)c3cc(Cl)c(OC(=O)N(C)C)cc3oc2=O)c1F", "beagle dog hepatocytes", 17.7),
    ("CNS(=O)(=O)Nc1cccc(Cc2c(CN3CCNCC3)c3cc(Cl)c(OC(=O)N(C)C)cc3oc2=O)c1Cl [Compound 256, hydrochloride]", "beagle dog hepatocytes", 62.8),
    ("CNS(=O)(=O)Nc1cccc(Cc2c(CN3CCNCC3)c3ccc(OC(=O)N(C)C)cc3oc2=O)c1Cl [Compound 246, hydrochloride]", "beagle dog hepatocytes", 79.6),
    ("CNS(=O)(=O)Nc1cccc(Cc2c(CN(C)C)c3ccc(OC(=O)N(C)C)cc3oc2=O)c1F", "beagle dog hepatocytes", 66.2),
]
